Test: MAD study: nacubactam pharmacokinetics, multiple doses and single dose alone or with meropenem
Format: in vivo, human
Conditions: human, plasma, intravenous, MAD part 3, single dose (day 3) nacubactam 2,000 mg plus meropenem 2,000 mg, geometric mean (%CV); read-out: CL (converted)
measured.endpoint: clearance (mL/min)
# unit: mL/min | format: bare number

So what's the measured clearance for this one? NCCONC(=O)[C@@H]1CC[C@@H]2CN1C(=O)N2OS(=O)(=O)O 149

----------
Experiment: MAD study: nacubactam pharmacokinetics, multiple doses and single dose alone or with meropenem
Assay type: in vivo, human
Settings: human, plasma, intravenous, 4000 mg, MAD part 2, 4,000 mg q8h for 7 days, day 9, n = 6, geometric mean (%CV)
measured.endpoint: half-life (min)
Could you give me the number in min? Just the number is fine.

Give its half-life value. Item: NCCONC(=O)[C@@H]1CC[C@@H]2CN1C(=O)N2OS(=O)(=O)O 161

----------
Test: SAD study: single-dose nacubactam pharmacokinetics (plasma/urine, LC-MS/MS, noncompartmental)
Assay type: in vivo
Conditions: human, plasma, iv, 1000 mg, single i.v. dose 1,000 mg, n = 6, mean (SD)
measured.endpoint: AUC(0-t)
Note: a bare number is incomplete; add the unit.

Which AUC(0-t) is listed for NCCONC(=O)[C@@H]1CC[C@@H]2CN1C(=O)N2OS(=O)(=O)O [Nacubactam] ? 142 µg·h/mL

----------
Test: SAD study: single-dose nacubactam pharmacokinetics (plasma/urine, LC-MS/MS, noncompartmental)
Type: in vivo
Details: human, plasma, iv, single i.v. dose 500 mg, n = 6, mean (SD)
measured.endpoint: Tmax (min)
Numbers only here, please. The scale is min.

Given NCCONC(=O)[C@@H]1CC[C@@H]2CN1C(=O)N2OS(=O)(=O)O [Nacubactam] , state its recorded Tmax. 30

----------
Assay: SAD study: single-dose nacubactam pharmacokinetics (plasma/urine, LC-MS/MS, noncompartmental)
Type: in vivo
Conditions: human, plasma, iv, 2000 mg, single i.v. dose 2,000 mg, n = 6, mean (SD)
Method: Study treatments were administered as 30-min (SAD study) or 90-min (MAD study) i.v. infusions, the latter to investigate the pharmacokinetics using a longer infusion time, which is commonly used to increase the time above the MIC of β-lactams ([15]). The choice of a 90-min infusion time for the MAD study was dictated by the stability and toxicology data available at the time the study was being designed. […]
measured.endpoint: k el (s⁻¹)
Give just the number in s⁻¹; leave the unit off.

Query (molecule): NCCONC(=O)[C@@H]1CC[C@@H]2CN1C(=O)N2OS(=O)(=O)O ; field requested: k el 8.61e-05

----------
Assay: SAD study: single-dose nacubactam pharmacokinetics (plasma/urine, LC-MS/MS, noncompartmental)
Format: in vivo
Details: human, plasma, iv, single i.v. dose 50 mg, n = 6, mean (SD), read-out: CL (converted)
measured.endpoint: clearance (mL/min)
The answer is to be given in mL/min; state only the numeric part.

Entry under review: NCCONC(=O)[C@@H]1CC[C@@H]2CN1C(=O)N2OS(=O)(=O)O [Nacubactam] . Reported clearance? 164

----------
Experiment: MAD study: nacubactam pharmacokinetics, multiple doses and single dose alone or with meropenem
Format: in vivo, human
Conditions: human, plasma, intravenous, 2000 mg; read-out: Vss
measured.endpoint: Vd (L)
Provide only the numeric value, understood in L.

Param item = NCCONC(=O)[C@@H]1CC[C@@H]2CN1C(=O)N2OS(=O)(=O)O ; retrieve measured Vd. 26.2
